Test: Plasma pharmacokinetics of Galunisertib after single oral dose (HPLC-FL)
Type: in vivo, mouse
Details: mouse; Solution (150 mg/kg), single oral dose, female CD-1 mice, plasma
quantity: k el (s⁻¹)
Respond numerically; units are s⁻¹ and should not be typed.

For reference, reported k el for Cc1cccc(-c2nn3c(c2-c2ccnc4ccc(C(N)=O)cc24)CCC3)n1 stands at 0.000164

====

Assay: Plasma pharmacokinetics of Galunisertib after single oral dose (HPLC-FL)
Format: in vivo, mouse
Conditions: mouse; Suspension (75mg/kg), single oral dose, female CD-1 mice, plasma
Procedure: Firstly, we quantified the concentration of LY2157299 in plasma of female CD-1 mice by a liquid chromatographic method, in order to define the concentration for the therapeutic window. […] The volume of administration was 10mL/kg for single treatment. Physical appearance, behavior as well as general and local clinical signs of the mice were monitored throughout the experiment. […] To quantify the concentration of Galunisertib, plasma was measured by a HPLC/Fluorimetric (HPLC-FL) method. […]
quantity: half-life
Dear colleague, please send the value followed by its unit.

Reported half-life for Cc1cccc(-c2nn3c(c2-c2ccnc4ccc(C(N)=O)cc24)CCC3)n1 [Galunisertib] was 1.4 h

====

Assay: Plasma pharmacokinetics of Galunisertib after single oral dose (HPLC-FL)
Assay type: in vivo, mouse
Settings: mouse; Solution (150 mg/kg), single oral dose, female CD-1 mice, plasma
Description: Firstly, we quantified the concentration of LY2157299 in plasma of female CD-1 mice by a liquid chromatographic method, in order to define the concentration for the therapeutic window. […] The volume of administration was 10mL/kg for single treatment. Physical appearance, behavior as well as general and local clinical signs of the mice were monitored throughout the experiment. […] To quantify the concentration of Galunisertib, plasma was measured by a HPLC/Fluorimetric (HPLC-FL) method. […]
quantity: AUC(0-t)
Report field: quantity (unit follows the number).

The value of AUC(0-t) measured for the compound Cc1cccc(-c2nn3c(c2-c2ccnc4ccc(C(N)=O)cc24)CCC3)n1 turned out to be 15500 ng·h/mL

====

Experiment: Plasma pharmacokinetics of Galunisertib after single oral dose (HPLC-FL)
Type: in vivo, mouse
Conditions: mouse; Suspension (75mg/kg), single oral dose, female CD-1 mice, plasma
Protocol: Firstly, we quantified the concentration of LY2157299 in plasma of female CD-1 mice by a liquid chromatographic method, in order to define the concentration for the therapeutic window. […] The volume of administration was 10mL/kg for single treatment. Physical appearance, behavior as well as general and local clinical signs of the mice were monitored throughout the experiment. […] To quantify the concentration of Galunisertib, plasma was measured by a HPLC/Fluorimetric (HPLC-FL) method. […]
quantity: AUC(0-t) (ng·h/mL)
Numbers only here, please. The scale is ng·h/mL.

So, Cc1cccc(-c2nn3c(c2-c2ccnc4ccc(C(N)=O)cc24)CCC3)n1 ? Its AUC(0-t) was 3110

====

Experiment: Plasma pharmacokinetics of Galunisertib after single oral dose (HPLC-FL)
Type: in vivo, mouse
Conditions: mouse; Suspension (75mg/kg), single oral dose, female CD-1 mice, plasma
quantity: Tmax (min)
Reply with just the number (in min).

So, Cc1cccc(-c2nn3c(c2-c2ccnc4ccc(C(N)=O)cc24)CCC3)n1 ? Its Tmax was 30

====

Assay: Plasma pharmacokinetics of Galunisertib after single oral dose (HPLC-FL)
Assay type: in vivo, mouse
Settings: mouse; Suspension (75mg/kg), single oral dose, female CD-1 mice, plasma
quantity: Cmax (ng/mL)
Please give a number only; it is taken to be in ng/mL.

Reported Cmax ( Cc1cccc(-c2nn3c(c2-c2ccnc4ccc(C(N)=O)cc24)CCC3)n1 ) = 3330
